Hey, just so you know, these numbers are from PubChem BioAssay AID1441.

biological target: Regulator of G-protein signaling 16 (Homo sapiens) + Guanine nucleotide-binding protein G(o) subunit alpha (Homo sapiens) (UniProt O15492+P09471); experiment: modulators of RGS16 binding to Galphao, primary screen, biochemical, human proteins, multiplexed bead flow cytometry (AID 1441); conditions: bead-based flow cytometry RGS16-Galphao binding, fluorescence; at 10 µM; actives lie on both sides;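 note: Galphao activated by GDP with aluminum fluoride before binding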
Sequence (O15492 whole entry, looked up): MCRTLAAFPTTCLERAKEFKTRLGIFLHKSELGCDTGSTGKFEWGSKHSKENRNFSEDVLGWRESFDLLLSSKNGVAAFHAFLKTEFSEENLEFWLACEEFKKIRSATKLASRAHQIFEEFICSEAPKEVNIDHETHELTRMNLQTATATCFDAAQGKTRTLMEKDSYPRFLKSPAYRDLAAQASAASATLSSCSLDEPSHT
Sequence (P09471 whole entry, looked up): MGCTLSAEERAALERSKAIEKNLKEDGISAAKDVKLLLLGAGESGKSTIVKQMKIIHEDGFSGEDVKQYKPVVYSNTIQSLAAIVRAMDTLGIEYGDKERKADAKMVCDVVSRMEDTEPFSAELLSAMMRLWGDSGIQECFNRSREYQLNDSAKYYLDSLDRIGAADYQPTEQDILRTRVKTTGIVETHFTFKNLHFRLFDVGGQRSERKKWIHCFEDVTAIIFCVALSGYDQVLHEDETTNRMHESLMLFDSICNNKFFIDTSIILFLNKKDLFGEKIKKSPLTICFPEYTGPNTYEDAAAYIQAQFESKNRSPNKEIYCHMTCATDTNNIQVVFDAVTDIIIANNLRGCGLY
Among all 220,000 compounds or so, about 830 (0.38%) were called active. The sample as a whole holds a higher share of actives than the screen did.
Property: binding response (% of control); scope: individual compounds
Give just the number in %; leave the unit off.

Consider the reported binding response (% of control) for these compounds:
NC(=O)c1nnsc1-c1ccc(-c2snnc2C(N)=O)cc1	103
COC(=O)[C@H]1Cc2cnoc2C[C@]1(C)C(=O)O	104
CCOC(=O)CSc1nc2c(c(=O)n(C)c(=O)n2C)n1Cc1ccccc1F	102
O=C(CN1CCCCCC1)N1c2ccccc2Sc2ccc(C(F)(F)F)cc21	81.4

// next entry
Look at this compound and give its reported binding response (% of control). `O=C1CCC(=O)N(O)CCCCCNC(=O)CCC(=O)N(O)CCCCCNC(=O)CCC(=O)N(O)CCCCCN1`
40.8

----------
molecular target: Regulator of G-protein signaling 16 (Homo sapiens) + Guanine nucleotide-binding protein G(o) subunit alpha (Homo sapiens) (UniProt O15492+P09471); experiment: modulators of RGS16 binding to Galphao, primary screen, biochemical, human proteins, multiplexed bead flow cytometry (AID 1441); conditions: bead-based flow cytometry RGS16-Galphao binding, fluorescence; at 10 µM; actives lie on both sides;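 note: Galphao activated by GDP with aluminum fluoride before binding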
In all, about 220,000 compounds went through this assay and about 830 (0.38%) were called active. Shown is part of a subset that was picked to be rich in actives.
Property: binding response (% of control); scope: individual molecules
Give just the number in %; leave the unit off.

Consider the reported binding response (% of control) for these molecules:
COc1ccc(S(=O)(=O)N(C)C)cc1NC(=O)CSc1ncccn1	101
Cc1cc(C(=O)OCC(=O)Nc2nccs2)c2ccccc2n1	99
CCCn1cc(SCC(N)=O)c2ccccc21	85.2

// next entry
Look at this molecule and give its reported binding response (% of control). `Cc1ccc(-n2c(SCC(=O)Nc3ccc4c(c3)OCO4)nnc2-c2ccccn2)cc1`
96.8

----------
target: Regulator of G-protein signaling 16 (Homo sapiens) + Guanine nucleotide-binding protein G(o) subunit alpha (Homo sapiens) (UniProt O15492+P09471); test: modulators of RGS16 binding to Galphao, primary screen, biochemical, human proteins, multiplexed bead flow cytometry (AID 1441); conditions: bead-based flow cytometry RGS16-Galphao binding, fluorescence; at 10 µM; actives lie on both sides;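 note: Galphao activated by GDP with aluminum fluoride before binding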
Screen size: about 220,000 compounds; about 830 (0.38%) were called active. The rule behind the calls is not given here. The list comes from a sample in which actives are over-represented; it also holds close analogues and randomly drawn compounds.
Parameter call: string, one of yes (1) = active, no (0) = inactive

O=C(CN1CCCCC1)N1c2ccccc2Sc2ccc(C(F)(F)F)cc21	yes (1)
COc1ccc(CCNC(=O)c2ccc(CS(=O)(=O)c3ccc(Br)cc3)o2)cc1OC	no (0)
C=CCNC(=O)/C(=C\c1cccc([N+](=O)[O-])c1)NC(=O)c1ccccc1	no (0)
CCCOc1ccc(Cc2c(Cl)nc(SC)nc2NC)cc1	no (0)
CC(C)=C1SC(N2CCN(c3ccc(C)c(Cl)c3)CC2)=NC1=O	no (0)

Answer briefly: the call reported for `O=C(NCCc1c[nH]c2ccc(Cl)cc12)c1ccc([N+](=O)[O-])cc1` in this assay.
no (0)

Thanks! And `CC(C)(C)NC(=O)COC(=O)c1cc(Cl)ccc1[N+](=O)[O-]` ?
no (0)

Thanks! And `CC(=O)N1CC[n+]2c(-c3ccc([N+](=O)[O-])cc3)csc21` ?
yes (1)
